Entry source: the RNAGym collection of RNA variant scans (doi:10.7554/elife.80360)

B1: CPEB3 Ribozyme (parent)
chain: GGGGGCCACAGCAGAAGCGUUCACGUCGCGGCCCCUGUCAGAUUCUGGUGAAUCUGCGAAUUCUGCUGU

variants of: B1; assay: self-cleavage, relative activity (ratio to wild type); higher = more cleavage; co-transcriptional
quantity: self-cleavage
Please reply with the value in numeric form only.

{"variant-descriptor": "A23C G47C", "self-cleavage": 0.961}

Noted for A10U A13U : its self-cleavage reads 0.701

Note to self: self-cleavage recorded for C34G U55G was 0.475

Reported self-cleavage of G3U U49G : 0.0811

# self-cleavage of U53C G65U = 0.429

GET /value?item= A8G C45G &field=self-cleavage returns 0.801

GET /value?item= C12G U21C &field=self-cleavage returns 0.308

Recorded self-cleavage (variant G28C U64C ): 0.194

Per the record, C6A G30C has self-cleavage of 0.209

Item: G17C G37U | self-cleavage: 0.107

self-cleavage recorded for this variant, U20C U43G , is 0.241
